# Procedure Text: absolute recovery over mixed-bed multilayer solid-phase extraction; higher = better recovery
# Stated Conditions: wastewater influent; enrichment method: SPE
Measurement Name: absolute recovery (%)
# output: bare number, implied unit %

Reference set (8 entries):
COc1ccc2c3c1OC1C(=O)CCC4C(C2)[NH+](C)CCC314 (centres undefined) [Hydrocodone] : 89.3
[NH3+]C(Cc1cc(I)c(O)c(I)c1)C(=O)[O-] (centres undefined) : 74.5
CNC(=C[N+](=O)[O-])NCCS(=O)Cc1ccc(C[NH+](C)C)o1 (centres undefined) : 81.4
CC(C)c1ccc(NC(N)=O)cc1 : 95.4
NC(=O)Cc1ccc(OCC(O)C[NH3+])cc1 (centres undefined) : 52.7
Cc1onc(-c2ccccc2)c1C(=O)NC1C(=O)N2C1SC(C)(C)C2C(=O)[O-] (centres undefined) : 33.4
C[NH2+]CC(O)c1ccc(O)c(O)c1 (centres undefined) [Epinephrine] : 26.6
C[NH+]1CCC23c4c5ccc(O)c4OC2C(O)C=CC3C1C5 (centres undefined) : 89.6

The reported absolute recovery of the molecule CC(Oc1ccc(Oc2ncc(C(F)(F)F)cc2Cl)cc1)C(=O)[O-] (centres undefined) was 95.4

* * *

# Procedure Text: LC retention time (Atlantis T3, 5-95% MeOH gradient, 0.1% formic acid); higher = more retained / less polar
The entries below come with measured LC retention time values attached.
# output: bare number, implied unit min

Reference set (6 entries):
Cc1cc(C)nc(Nc2ccccc2)n1 : 18.3
COP(=O)(OC)SCn1c(=O)oc2cc(Cl)cnc21 : 16.6
Cc1cc(C)nc([N-]S(=O)(=O)c2ccc(N)cc2)n1 : 12.1
CC(C)c1ccc(NC(=O)N(C)C)cc1 : 18.5
CSc1nc(=O)c(C(C)(C)C)n[n-]1 : 17.7
FC(F)(F)c1cccc(N2CC[NH2+]CC2)c1 : 13.6

The reported LC retention time of the compound Cc1ccc(NS(=O)(=O)N(C)C)cc1 [N-N-dimethyl-N-(4-methylphenyl)-sulfamide] was 17.2

The reported LC retention time of the compound `CCc1ccc(C(=O)NN(C(=O)c2cc(C)cc(C)c2)C(C)(C)C)cc1` was 20.5

The reported LC retention time of the compound `O=c1ncnc2[nH][nH]cc1-2` was 6.21

The reported LC retention time of the compound `CCNc1nc(NC(C)C)nc(OC)n1` was 14.4

The reported LC retention time of the compound `[NH3+]C12CC3CC(CC(C3)C1)C2` was 12.1

The reported LC retention time of the compound `Cc1ccc2[nH]nnc2c1` was 15.4

* * *

# Procedure Text: absolute recovery over vacuum-assisted evaporative concentration; higher = better recovery
# Stated Conditions: wastewater effluent; enrichment method: VEC
Measurement Name: absolute recovery (%)
# output: bare number, implied unit %

CN(C(=O)CO)c1c(I)c(C(=O)NCC(O)CO)c(I)c(C(=O)NCC(O)CO)c1I (centres undefined) [Iomeprol] : 109
NC(=O)c1cn(Cc2c(F)cccc2F)nn1 [Rufinamid] : 98.5
CC1CC2C3CCC4=CC(=O)C=CC4(C)C3(F)C(O)CC2(C)C1(O)C(=O)CO (centres undefined) [Dexamethason] : 106

The reported absolute recovery of the compound CCN(CC)C(=O)c1cccc(C)c1 [N-N-diethyl-3-methylbenzamid (=DEET)] was 93.2

The reported absolute recovery of the compound COC(=O)Nc1nc2ccccc2[nH]1 [Carbendazim] was 105
